Reference for the values: PubChem BioAssay (Tox21)

Assay: A CellTox Green Cytotoxicity Assay to monitor cytotoxicity in HEK293 cells - 40 hour (AID 1224871); note: nearly all actives have a fitted effect of over 45% in size
Conditions: CellTox Green fluorescence; series mostly up to 76.8 µM
Inconclusive results are not listed. The source made the active and inactive calls. Calls come from the whole dose curve; as a rule, active = well fitted activation curve with a large enough effect in the repeat runs; inconclusive = weak or mixed curves; inactive = flat fitted curve, though single readings scatter.
Outcomes: active, inactive

# COMPOUND, CLASS NAME
data = [
    ("C[C@H]1CC[C@@H]2[C@@H](C)[C@H]3[C@H](C[C@H]4[C@@H]5CC=C6CC(O[C@@H]7O[C@H](CO)[C@H](O)[C@H](O[C@@H]8O[C@H](CO)[C@@H](O)[C@H](O)[C@H]8O)[C@H]7O[C@H]7O[C@@H](C)[C@H](O)[C@@H](O)[C@H]7O)CC[C@]6(C)[C@H]5CC[C@]34C)N2C1 (some centres undefined)", "active"),
    ("C[CH2][Hg][N]1C(=O)C2C(C1=O)C1(Cl)C(Cl)=C(Cl)C2(Cl)C1(Cl)Cl (centres undefined)", "active"),
    ("CCCN(CCC)CCc1c[nH]c2ccccc12", "inactive"),
    ("CCC(C)c1cc([N+](=O)[O-])cc([N+](=O)[O-])c1OC(=O)C=C(C)C (centres undefined)", "inactive"),
    ("CC[C@H]1C[C@@H]2C[C@H]3c4[nH]c5ccc(OC)cc5c4CCN(C2)[C@@H]13", "inactive"),
    ("O=[N+]([O-])O.O=[N+]([O-])O.[Cd]", "active"),
    ("CC(C)CCCCCOC(=O)c1ccccc1C(=O)OCCCCCC(C)C", "inactive"),
    ("COCC(=O)N(c1c(C)cccc1C)[C@H](C)C(=O)OC", "inactive"),
    ("Fc1cccc(Cl)c1CCl", "inactive"),
]

====

Experiment: qHTS assay to identify small molecule antagonists of the androgen receptor (AR) signaling pathway using the MDA cell line in the presence of 0.5 nM R1881 - cell viability counter screen (AID 1259242); note: nearly all actives have a fitted effect of over 45% in size
Conditions: MDA-kb2 viability, CellTiter-Fluor protease fluorescence, 16 h; series mostly up to 92.4 µM
Records with an inconclusive call do not appear. Active and inactive are the calls of the source. Calls come from the whole dose curve; as a rule, active = well fitted cell-killing curve with a large enough effect in the repeat runs; inconclusive = weak or mixed curves, or effect the other way; inactive = flat fitted curve, though single readings scatter.
ASSAY READOUT: outcome

# COMPOUND, ASSAY READOUT, TEST RESULT
data = [
    ("Nc1ccc(Cc2ccc(N)c(Cl)c2)cc1Cl", "outcome", "inactive"),
    ("CC(C)OC(=O)C(O)(c1ccc(Cl)cc1)c1ccc(Cl)cc1", "outcome", "inactive"),
    ("CCOC(=O)c1ccccc1S(=O)(=O)NC(=O)Nc1nc(Cl)cc(OC)n1", "outcome", "inactive"),
    ("O=C(CBr)c1ccc(O)cc1", "outcome", "inactive"),
    ("C=CC(=O)N(C)C", "outcome", "inactive"),
    ("Oc1ccccc1Br", "outcome", "inactive"),
    ("CC1(C)C(/C=C(\\Cl)C(F)(F)F)C1C(=O)OC(C#N)c1cccc(Oc2ccccc2)c1 (configuration not stated)", "outcome", "inactive"),
]

====

Experiment: qHTS assay for small molecule agonists of the p53 signaling pathway - cell viability (AID 651633); note: nearly all actives have a fitted effect of over 30% in size
Conditions: p53RE-bla HCT-116 viability, ATP luminescence, 16 h; series mostly up to 83.3 µM
Inconclusive results are not listed. The source made the active and inactive calls. The call rests on the fitted dose curve.
Outcomes: active, inactive

# COMPOUND, CLASS NAME
data = [
    ("O=C(CBr)c1ccc(O)cc1", "inactive"),
    ("CC(C)(C)OO", "inactive"),
    ("O=c1[nH]c2ccccc2n1CCCN1CCC(n2c(=O)[nH]c3cc(Cl)ccc32)CC1", "inactive"),
    ("CN(C)C1CSSSC1", "inactive"),
    ("N#CC(Cl)Cl", "inactive"),
    ("O=c1oc2ccccc2c(O)c1Cc1c(O)c2ccccc2oc1=O", "active"),
    ("BrC(Br)Br", "inactive"),
    ("CC(=O)/C=C/c1ccc2c(c1)OCO2", "inactive"),
    ("CCOCn1c(-c2ccc(Cl)cc2)c(C#N)c(Br)c1C(F)(F)F", "active"),
    ("c1ccc(Nc2ccc3ccccc3c2)cc1", "inactive"),
    ("CCCCCCCCCCCCCCCC[n+]1ccccc1", "active"),
    ("CCCCCCCCCCCCCN1CC(C)OC(C)C1 (stereo unspecified)", "inactive"),
    ("CCCN(CC)CC1COC2(CCC(C(C)(C)C)CC2)O1 (stereo unspecified)", "inactive"),
    ("[Hg+2].[I-].[I-]", "active"),
    ("O=c1ssc(Cl)c1Cl", "active"),
    ("CC[C@H](C)[C@H]1O[C@]2(C=C[C@@H]1C)C[C@@H]1C[C@@H](C/C=C(\\C)[C@@H](O[C@H]3C[C@H](OC)[C@@H](O[C@H]4C[C@H](OC)[C@@H](O)[C@H](C)O4)[C@H](C)O3)[C@@H](C)/C=C/C=C3\\CO[C@@H]4[C@H](O)C(C)=C[C@@H](C(=O)O1)[C@]34O)O2", "active"),
    ("CC(C)(C)c1ccc(CSc2cnn(C(C)(C)C)c(=O)c2Cl)cc1", "inactive"),
    ("CCOC(=O)OC1=C(c2cc(C)ccc2C)C(=O)NC12CCC(OC)CC2 (stereo unspecified)", "inactive"),
    ("CN(C)[C@@H]1C(=O)C(C(N)=O)=C(O)[C@@]2(O)C(=O)C3=C(O)c4c(O)ccc(Cl)c4[C@@](C)(O)[C@H]3C[C@@H]12", "inactive"),
    ("COP(=S)(OC)Oc1cc(Cl)c(Br)cc1Cl", "inactive"),
    ("N#CCCC(Br)(C#N)CBr (stereo unspecified)", "inactive"),
    ("CC[C@H]1C[C@@H]2C[C@H]3c4[nH]c5ccc(OC)cc5c4CCN(C2)[C@@H]13", "inactive"),
    ("CC(C)(C)C(O)/C(=C\\c1ccc(Cl)cc1Cl)n1cncn1 (stereo unspecified)", "inactive"),
    ("CCOc1cc(C(C)(C)C)ccc1C1COC(c2c(F)cccc2F)=N1 (stereo unspecified)", "active"),
    ("N#CNC#N", "inactive"),
    ("CC(C)CCCCCOC(=O)c1ccccc1C(=O)OCCCCCC(C)C", "inactive"),
    ("CN(C)C(=S)S", "inactive"),
    ("CCN", "inactive"),
    ("CCC[CH2][Sn]([CH2]CCC)([CH2]CCC)[O]C(=O)c1ccccc1", "active"),
    ("FC(F)(F)c1cccc(C2=CCN(CCc3ccc4ccccc4c3)CC2)c1", "inactive"),
    ("Cn1cc(C2=C(c3cn(C4CCN(Cc5ccccn5)CC4)c4ccccc34)C(=O)NC2=O)c2ccccc21", "inactive"),
    ("Clc1ccc(CO/N=C(\\Cn2ccnc2)c2ccc(Cl)cc2Cl)c(Cl)c1", "active"),
    ("CC(=O)OC1(c2ccccc2)CCN(CCc2ccccc2)CC1", "inactive"),
    ("OC(c1ccc(Cl)cc1)(c1ccc(Cl)cc1)C(Cl)(Cl)Cl", "active"),
    ("ClC(Cl)=C(Cl)Cl", "inactive"),
    ("O=[N+]([O-])c1ccc2ccc3cccc4ccc1c2c34", "inactive"),
    ("Oc1ccc(C2(c3ccc(O)cc3)c3ccccc3-c3ccccc32)cc1", "active"),
    ("C=CCC1=C(C)C(OC(=O)C2C(C=C(C)C)C2(C)C)CC1=O (stereo unspecified)", "active"),
    ("N#C/C=C/C#N", "inactive"),
    ("ClC1=C(Cl)[C@]2(Cl)[C@@H]3[C@@H]4C[C@@H]([C@H]5O[C@@H]45)[C@@H]3[C@@]1(Cl)C2(Cl)Cl", "active"),
    ("CNC(C)Cc1ccc2c(c1)OCO2 (stereo unspecified)", "inactive"),
    ("BrC(Br)C(Br)(Br)Br", "inactive"),
    ("C[C@]12CC[C@@H]3c4ccc(OC(=O)N(CCCl)CCCl)cc4CC[C@H]3[C@@H]1CC[C@@H]2O", "inactive"),
    ("CC(C)CC(C)Nc1ccc(Nc2ccccc2)cc1 (stereo unspecified)", "active"),
    ("O=C(CCCN1CCC2(CC1)C(=O)NCN2c1ccccc1)c1ccc(F)cc1", "inactive"),
    ("N#CCCSCCC#N", "inactive"),
    ("CCN(CC)c1c([N+](=O)[O-])cc(C(F)(F)F)c(N)c1[N+](=O)[O-]", "inactive"),
    ("CCCCCCCCc1ccc(O)cc1", "active"),
    ("C[C@]12CC[C@H]3[C@@H](CCC4=CC(=O)CC[C@@]43C)[C@@H]1CC[C@@H]2O", "inactive"),
    ("O=[N+]([O-])c1ccc(Oc2ccc(C(F)(F)F)cc2[N+](=O)[O-])cc1", "inactive"),
    ("[Cl][Sb]([Cl])[Cl]", "inactive"),
]
